B1: tRNA (parent)
chain: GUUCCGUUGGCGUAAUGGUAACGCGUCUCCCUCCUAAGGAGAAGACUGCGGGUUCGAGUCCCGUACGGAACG

Variants of: B1
Experiment: yeast fitness relative to wild type (ratio to wild type); higher = fitter; tRNA-Arg(CCU), competitive growth, 37 C, YPD
This sample holds only a part of the variants without activity.
READOUT LABEL: yeast fitness

>>> reported_measurement("U7A A15U U54C")
"≤ 0.5"

Measured yeast fitness of U19A C29U C55A A57C U59C : ≤ 0.5

Measured yeast fitness of U26C C33G A36G A42C C49G G58C C62G : ≤ 0.5

Measured yeast fitness of U3A C22U G39A C66U A69C : ≤ 0.5

Measured yeast fitness of A14G A36U A65G : ≤ 0.5
